// TOP MFI lookup, one value per entry
biological target: T1, human SIRPα v2 on CHOK1 cells (human, UniProt P78324 31-504); assay: FACS, CHOK1 cells stably expressing human SIRPα v2
T1 construct: whole, on cells; also called CHOK1-hSIRPα v2; cell surface human SIRPα v2
T1 sequence (P78324 other isoform, or with tags, fused parts or gaps limits assumed): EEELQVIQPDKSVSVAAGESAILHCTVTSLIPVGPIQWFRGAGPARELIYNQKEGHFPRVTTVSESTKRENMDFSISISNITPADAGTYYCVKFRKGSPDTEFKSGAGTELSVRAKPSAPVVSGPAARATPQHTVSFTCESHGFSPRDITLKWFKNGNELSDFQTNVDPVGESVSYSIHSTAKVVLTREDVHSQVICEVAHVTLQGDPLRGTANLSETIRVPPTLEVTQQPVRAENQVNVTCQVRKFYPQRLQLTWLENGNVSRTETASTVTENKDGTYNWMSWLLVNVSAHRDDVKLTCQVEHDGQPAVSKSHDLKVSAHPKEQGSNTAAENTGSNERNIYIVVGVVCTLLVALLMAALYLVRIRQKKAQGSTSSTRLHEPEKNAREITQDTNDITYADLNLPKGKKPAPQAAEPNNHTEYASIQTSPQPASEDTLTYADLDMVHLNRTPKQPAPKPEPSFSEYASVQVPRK
assay-metric: TOP MFI (MFI)

INSERT INTO measurements (binder, meas_value) VALUES
  ('Anti-SIRPα antibody C59 (antibody, V domains shown, Mouse variable regions; tested as purified chimeric antibody; also called 059c) VH: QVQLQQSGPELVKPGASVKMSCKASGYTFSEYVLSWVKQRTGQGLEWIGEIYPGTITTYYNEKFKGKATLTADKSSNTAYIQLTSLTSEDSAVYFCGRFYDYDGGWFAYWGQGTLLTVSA VL: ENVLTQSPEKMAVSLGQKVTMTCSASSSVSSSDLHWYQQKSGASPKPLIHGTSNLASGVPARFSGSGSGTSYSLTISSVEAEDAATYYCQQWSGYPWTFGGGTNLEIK', 19600),
  ('Anti-SIRPα antibody C42 (antibody, human IgG4, V domains shown, Mouse variable regions; also called 042c) VH: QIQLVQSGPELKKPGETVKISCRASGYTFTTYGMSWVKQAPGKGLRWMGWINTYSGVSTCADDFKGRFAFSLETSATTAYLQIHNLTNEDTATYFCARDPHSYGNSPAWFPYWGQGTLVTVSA VL: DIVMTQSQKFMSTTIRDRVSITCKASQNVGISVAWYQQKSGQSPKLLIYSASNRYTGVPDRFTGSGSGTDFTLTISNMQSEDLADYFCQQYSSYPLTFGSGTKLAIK', 54800);
